TARGET_UNDER_TEST: TR/Trx (Homo sapiens, UniProt Q16881)
Sequence (Q16881 1-499 isoform Q16881-5): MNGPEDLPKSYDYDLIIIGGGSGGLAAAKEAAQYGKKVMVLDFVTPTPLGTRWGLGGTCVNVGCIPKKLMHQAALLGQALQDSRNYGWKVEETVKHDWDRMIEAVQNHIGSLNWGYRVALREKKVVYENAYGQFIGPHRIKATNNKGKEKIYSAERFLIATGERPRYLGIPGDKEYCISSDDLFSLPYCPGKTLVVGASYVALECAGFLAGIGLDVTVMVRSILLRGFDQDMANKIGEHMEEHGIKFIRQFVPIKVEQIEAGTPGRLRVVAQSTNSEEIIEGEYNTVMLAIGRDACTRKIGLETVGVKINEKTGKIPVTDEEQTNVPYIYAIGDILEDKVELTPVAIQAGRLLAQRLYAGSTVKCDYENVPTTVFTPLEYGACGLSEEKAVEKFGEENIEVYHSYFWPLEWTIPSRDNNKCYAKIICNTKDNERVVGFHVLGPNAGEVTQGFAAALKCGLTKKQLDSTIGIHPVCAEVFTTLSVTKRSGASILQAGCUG
TEST_DETAILS: Thioredoxin dependent reduction of insulin by human thioredoxin reductase and NADPH (IC50 TR/Trx, 96 well)
Assay type: biochemical
CONDITION_INFO: Table 4
Exercise: state measured Disulfide inhibition of TR/Trx (IC50 TR/Trx) for each of the compounds provided.
Answers are plain numbers, in µg/mL.

See these solved cases before continuing.
- COMPOUND: "CCCCSSc1nc2cc(C)ccc2[nH]1"
  UNIT_LABEL: "µg/mL"
  READOUT_NUMBER: 12
- COMPOUND: "CC(C)CSSc1nc2ccccc2o1"
  UNIT_LABEL: "µg/mL"
  READOUT_NUMBER: 52
- COMPOUND: "CCCSSc1nnc(C)s1"
  UNIT_LABEL: "µg/mL"
  READOUT_NUMBER: 85
- COMPOUND: "Cc1ccc2[nH]c(SSC(C)c3ccccc3)nc2c1 (stereo not drawn)"
  UNIT_LABEL: "µg/mL"
  READOUT_NUMBER: 43
- COMPOUND: "CC(C)CSSc1nc2ccccc2[nH]1"
  UNIT_LABEL: "µg/mL"
  READOUT_NUMBER: 18
- COMPOUND: "CC(C)CSSc1ncc[nH]1"
  UNIT_LABEL: "µg/mL"
  READOUT_NUMBER: 8

For each of the compounds below, state Disulfide inhibition of TR/Trx (IC50 TR/Trx).
1. Cc1nnc(SSCC(C)C)s1
2. CCCCSSc1nc2ccccc2o1

Solution:
1. 29
2. 42

---

Test system: EMT6 mouse mammary tumor cells
TEST_DETAILS: Cytotoxicity against EMT6 cells in culture (MTT)
CONDITION_INFO: read-out: Disulfide Cytotoxicity (IC50), Table 5, 48 h exposure
Exercise: state measured IC50 for each of the molecules provided.

See these solved cases before continuing.
- MOLECULE: "CC(CSSC(C)C(C)O)C(=O)N1CCCC1C(=O)O (stereo not shown)"
  IC50: "≥ 180 µM"
- MOLECULE: "O=C(O)CCSSc1nc2ccccc2[nH]1"
  IC50: "≥ 180 µM"
- MOLECULE: "CCC(C)SSC(C)c1ccccc1 (stereo not shown)"
  IC50: "> 180 µM"

For each of the molecules below, state IC50.
1. Cc1nnc(SSCCCCl)s1
2. ClCCCSSc1ccccc1
3. Cn1ccnc1SSCCCCl

Solution:
["> 180 µM", "> 180 µM", "> 180 µM"]

---

Exercise: state measured IC50 for each of the compounds provided.
System: EMT6 mouse mammary tumor cells
TEST_DETAILS: Cytotoxicity against EMT6 cells in culture (MTT)
CONDITION_INFO: read-out: Disulfide Cytotoxicity (IC50), Table 5, 48 h exposure
Answers are plain numbers, in µM.

See these solved cases before continuing.
- COMPOUND: "CC(C)CSSc1ncc[nH]1"
  UNIT_LABEL: "µM"
  IC50: 28
- COMPOUND: "CCC(C)SSc1nccn1C (stereo not shown)"
  UNIT_LABEL: "µM"
  IC50: 43
- COMPOUND: "CCC(C)SSc1nc2ccccc2[nH]1 (stereo not shown)"
  UNIT_LABEL: "µM"
  IC50: 73
- COMPOUND: "CC(C)SSc1nc2cc([N+](=O)[O-])ccc2[nH]1"
  UNIT_LABEL: "µM"
  IC50: 29
- COMPOUND: "CC(C)SSc1nccn1C"
  UNIT_LABEL: "µM"
  IC50: 33
- COMPOUND: "CCCSSc1ncc[nH]1"
  UNIT_LABEL: "µM"
  IC50: 21

The record that follows has no IC50 shown yet.
Problem: Fill in the blank: the reported IC50 of `Cc1ccc2[nH]c(SSCCCCl)nc2c1` is ____.
Solution: 66

---

Test system: EMT6 mouse mammary tumor cells
TEST_DETAILS: Cytotoxicity against EMT6 cells in culture (MTT)
CONDITION_INFO: read-out: Disulfide Cytotoxicity (IC50), Table 5, 48 h exposure
Exercise: state measured IC50 for each of the molecules provided.

For each of the molecules below, state IC50.
1. CCC(C)SSc1nccc(C)n1 (stereo not drawn) [Compound F-24]
2. CCC(C)SSCc1cccc(OC)c1 (stereo not drawn) [Compound F-20]
3. CC(SSC(C)C(C)O)c1ccccc1 (stereo not drawn) [Compound M-22]
4. CC(C)SSc1ncccc1C(=O)O [Compound E-23]
5. Cc1nnc(SSC(C)C)s1 [Compound E-3]
6. CC(C)SSCC(C)C(=O)N1CCCC1C(=O)O (stereo not drawn) [Compound E-28]

Solution:
> 180 µM
> 180 µM
≥ 180 µM
> 180 µM
> 180 µM
> 180 µM

For each of the molecules below, state IC50.
1. CC(O)C(C)SSc1nccn1C (stereo not drawn) [Compound M-2]
2. ClCCCSSc1ncc[nH]1 [Compound H-1]
3. CC(C)SSc1ncnc2[nH]cnc12 [Compound E-7]

Solution:
1: ≥ 180 µM; 2: > 180 µM; 3: > 180 µM

The reported numbers originate from patent US6552060B1.
